Experiment: Toxicity in po dosed Chinese Kun Ming mouse assessed as lethality after 24 hrs
Assay type: organism-based
Settings: in vivo
QUANTITY MEASURED: LD50 at 24 h

Task: Give the value of LD50 at 24 h reported for the following: O=c1ccc(OCCCN2CCC(c3noc4cc(F)ccc34)CC2)nn1-c1c(F)cccc1F
Output: > 2000 mg/kg

====

Assay: Therapeutic index, ratio of ED50 for induction of catalepsy in po dosed Chinese Kun Ming mouse to ED50 for inhibition of apomorphine-induced climbing behavior in po dosed Chinese Kun Ming mouse
Format: organism-based
Conditions: in vivo, read-out: Ratio ED50
QUANTITY MEASURED: selectivity ratio

O=C(CCCN1CCC(O)(c2ccc(Cl)cc2)CC1)c1ccc(F)cc1 : 3.11

Task: Give the value of selectivity ratio reported for the following: O=c1ccc(OCCCN2CCC(c3noc4cc(F)ccc34)CC2)nn1-c1c(F)cccc1F
Output: 50.7

====

Molecular target: 5-hydroxytryptamine receptor 2A (Rattus norvegicus, UniProt P14842)
Sequence (P14842 whole entry): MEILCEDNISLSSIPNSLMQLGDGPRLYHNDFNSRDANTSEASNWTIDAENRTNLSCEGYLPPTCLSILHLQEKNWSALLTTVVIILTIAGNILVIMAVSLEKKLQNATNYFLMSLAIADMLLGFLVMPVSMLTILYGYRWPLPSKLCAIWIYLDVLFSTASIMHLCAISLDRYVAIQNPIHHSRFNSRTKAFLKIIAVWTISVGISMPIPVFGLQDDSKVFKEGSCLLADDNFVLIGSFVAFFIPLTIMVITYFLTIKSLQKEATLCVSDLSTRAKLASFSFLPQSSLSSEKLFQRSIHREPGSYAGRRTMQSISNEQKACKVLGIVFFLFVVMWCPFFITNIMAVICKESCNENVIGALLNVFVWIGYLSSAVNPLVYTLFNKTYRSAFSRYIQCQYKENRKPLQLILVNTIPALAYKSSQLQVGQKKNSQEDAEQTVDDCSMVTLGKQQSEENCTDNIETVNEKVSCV
Quick rule for you: Ki under 80 nM gets condition met, anything else gets condition not met.

Answered examples (3):
O=c1ccc(OCCCN2CCC(c3noc4cc(F)ccc34)CC2)nn1-c1ccc(F)c(Cl)c1 : condition met
O=c1ccc(OCCCN2CCC(c3noc4cc(F)ccc34)CC2)nn1-c1ccc(Cl)cc1Cl : condition met
O=c1ccc(OCCCN2CCN(c3ccccn3)CC2)nn1-c1ccc(Cl)c(Cl)c1 : condition not met

Task: Strictly below 80 nM in Ki? O=c1ccc(OCCCN2CCN(c3ccccc3F)CC2)nn1-c1ccc(Cl)c(Cl)c1
Output: condition met

Task: Strictly below 80 nM in Ki? Cc1ccc(-n2nc(OCCCN3CCC(c4noc5cc(F)ccc45)CC3)ccc2=O)cc1
Output: condition met

Task: Strictly below 80 nM in Ki? O=c1ccc(OCCCN2CCC(c3noc4cc(F)ccc34)CC2)nn1-c1ccc(F)cc1F
Output: condition met

Task: Strictly below 80 nM in Ki? O=c1ccc(OCCCN2CCC(c3noc4cc(F)ccc34)CC2)nn1-c1ccccc1
Output: condition not met

Task: Strictly below 80 nM in Ki? O=c1ccc(OCCCN2CCN(c3cccc(C(F)(F)F)c3)CC2)nn1-c1ccc(Cl)c(Cl)c1
Output: condition not met

====

Ki values recorded for 5-hydroxytryptamine receptor 2A (Rattus norvegicus, UniProt P14842)
Provide only the numeric value, understood in nM.

O=c1ccc(OCCCN2CCC(c3noc4cc(F)ccc34)CC2)nn1-c1cc(F)ccc1F : 11.2

Task: Give the value of Ki reported for the following: O=c1ccc(OCCCN2CCC(c3noc4cc(F)ccc34)CC2)nn1-c1c(F)cccc1F
Output: 0.3

Task: Give the value of Ki reported for the following: O=c1ccc(OCCCN2CCC(c3noc4cc(F)ccc34)CC2)nn1-c1cc(Cl)cc(Cl)c1
Output: 9.3

Task: Give the value of Ki reported for the following: O=c1ccc(OCCCN2CCC(c3noc4cc(F)ccc34)CC2)nn1-c1ccccc1Cl
Output: 10.3

Task: Give the value of Ki reported for the following: O=C(c1ccc(F)cc1)C1CCN(CCCOc2ccc(=O)n(-c3ccc(Cl)c(Cl)c3)n2)CC1
Output: 13.8

Task: Give the value of Ki reported for the following: O=c1c2c(c(OCCCN3CCC(c4noc5cc(F)ccc45)CC3)nn1-c1ccc(Cl)c(Cl)c1)CCCC2
Output: 89.6

====

Assay: Therapeutic index, ratio of ED50 for induction of catalepsy in po dosed Chinese Kun Ming mouse to ED50 for inhibition of MK-801 induced hyperactivity in po dosed Chinese Kun Ming mouse
Format: organism-based
Conditions: in vivo, read-out: Ratio ED50
Measured selectivity ratio of individual entries

O=C(CCCN1CCC(O)(c2ccc(Cl)cc2)CC1)c1ccc(F)cc1 [HALOPERIDOL] : 2.95

Consider the record given below.
Task: Give the value of selectivity ratio reported for the following: O=c1ccc(OCCCN2CCC(c3noc4cc(F)ccc34)CC2)nn1-c1c(F)cccc1F
Output: 79.4

====

Molecular target: 5-hydroxytryptamine receptor 1A (Rattus norvegicus, UniProt P19327)
Sequence (P19327 whole entry): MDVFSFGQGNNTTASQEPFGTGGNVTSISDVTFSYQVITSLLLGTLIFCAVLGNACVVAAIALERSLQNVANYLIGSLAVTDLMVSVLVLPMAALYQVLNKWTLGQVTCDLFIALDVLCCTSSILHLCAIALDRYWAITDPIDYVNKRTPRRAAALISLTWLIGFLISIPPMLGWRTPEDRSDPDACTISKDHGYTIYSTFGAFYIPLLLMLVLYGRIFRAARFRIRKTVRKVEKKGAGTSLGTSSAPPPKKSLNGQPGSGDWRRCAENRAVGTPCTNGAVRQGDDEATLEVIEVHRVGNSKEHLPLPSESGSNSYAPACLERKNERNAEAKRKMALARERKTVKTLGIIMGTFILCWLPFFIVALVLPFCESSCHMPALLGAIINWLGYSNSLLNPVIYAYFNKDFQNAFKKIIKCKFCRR
Entries are grouped by Ki into these classes: one = under 0.03 µM, two = from 0.03 µM up to 0.1 µM, three = 0.1 µM and over

O=c1ccc(OCCCCN2CCC(c3noc4cc(F)ccc34)CC2)nn1-c1ccc(Cl)c(Cl)c1 : three
O=c1ccc(OCCCN2CCC(c3noc4cc(F)ccc34)CC2)nn1-c1cc(F)ccc1F : one

Task: Tag the class for O=c1ccc(OCCCN2CCC(c3noc4cc(F)ccc34)CC2)nn1-c1ccc(F)cc1
Output: two

Task: Tag the class for O=c1ccc(OCCCN2CCC(c3noc4cc(F)ccc34)CC2)nn1-c1ccc2ccccc2c1
Output: one

Task: Tag the class for COc1ccc(N2CCN(CCCOc3ccc(=O)n(-c4ccc(Cl)c(Cl)c4)n3)CC2)cc1
Output: two

Task: Tag the class for O=c1ccc(OCCCN2CCC(c3noc4cc(F)ccc34)CC2)nn1-c1cccc(Cl)c1Cl
Output: one

Task: Tag the class for O=c1ccc(OCCCN2CCC(c3noc4cc(F)ccc34)CC2)nn1-c1c(F)cccc1F
Output: one

====

Measured pKi of individual entries
Biological target: D(2) dopamine receptor (Rattus norvegicus, UniProt P61169)
Sequence (P61169 whole entry): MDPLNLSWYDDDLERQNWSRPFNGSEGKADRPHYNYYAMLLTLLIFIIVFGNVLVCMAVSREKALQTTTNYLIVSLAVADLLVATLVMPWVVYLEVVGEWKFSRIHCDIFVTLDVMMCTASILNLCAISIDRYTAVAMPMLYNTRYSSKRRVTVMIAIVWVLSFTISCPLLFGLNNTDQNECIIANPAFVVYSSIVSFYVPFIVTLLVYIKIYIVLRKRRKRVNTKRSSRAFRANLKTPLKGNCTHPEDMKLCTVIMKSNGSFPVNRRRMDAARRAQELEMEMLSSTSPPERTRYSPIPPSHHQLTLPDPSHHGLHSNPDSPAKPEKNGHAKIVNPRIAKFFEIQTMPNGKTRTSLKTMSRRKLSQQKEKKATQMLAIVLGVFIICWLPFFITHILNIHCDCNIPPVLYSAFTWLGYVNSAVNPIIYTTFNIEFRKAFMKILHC
Experiment: Displacement of [3H]spiperone from dopamine D2 receptor in Sprague-Dawley rat striatum incubated for 30 mins by liquid scintillation counting analysis
Just so you know, pKi here is -log10 of the concentration in molar units; reply with that number alone.

O=c1ccc(OCCCN2CCC(c3noc4cc(F)ccc34)CC2)nn1-c1ccc(F)c(Cl)c1 : 7.34

Consider the record given below.
Task: Give the value of pKi reported for the following: O=c1ccc(OCCCN2CCC(c3noc4cc(F)ccc34)CC2)nn1-c1cc(Cl)cc(Cl)c1
Output: 7.42

====

Biological target: UniProtKB P19327
Measured pKi of individual entries
Just so you know, pKi here is -log10 of the concentration in molar units; reply with that number alone.

O=c1ccc(OCCCN2CCC(c3noc4cc(F)ccc34)CC2)nn1-c1ccc(Cl)c(Cl)c1 : 7.60
O=c1ccc(OCCCN2CCN(c3cccc(Cl)c3Cl)CC2)nn1-c1ccc(Cl)c(Cl)c1 : 6.20
NC(=O)c1ccc2occ(N3CCN(CCCOc4ccc(=O)n(-c5ccc(Cl)c(Cl)c5)n4)CC3)c2c1 : 7.19
O=c1ccc(OCCCN2CCN(c3ccccc3)CC2)nn1-c1ccc(Cl)c(Cl)c1 : 7.32
O=c1ccc(OCCCN2CCN(c3ncccn3)CC2)nn1-c1ccc(Cl)c(Cl)c1 : 6.78

Task: Look up UniProtKB P19327 data: pKi of O=c1ccc(OCCCN2CCN(c3ccccn3)CC2)nn1-c1ccc(Cl)c(Cl)c1 , then report it.
Output: 6.80

Task: Look up UniProtKB P19327 data: pKi of O=c1c2ccccc2c(OCCCN2CCC(c3noc4cc(F)ccc34)CC2)nn1-c1ccc(Cl)c(Cl)c1 , then report it.
Output: 6.48

Task: Look up UniProtKB P19327 data: pKi of O=c1ccc(OCCCN2CCN(c3ccc(F)cc3)CC2)nn1-c1ccc(Cl)c(Cl)c1 , then report it.
Output: 7.26
